# reported binding score; entries follow
Target: T1, CaBdf1 BD1 (GST-tagged, wild-type) (Candida albicans (strain SC5314 / ATCC …, UniProt Q5A4W8))
T1 chain: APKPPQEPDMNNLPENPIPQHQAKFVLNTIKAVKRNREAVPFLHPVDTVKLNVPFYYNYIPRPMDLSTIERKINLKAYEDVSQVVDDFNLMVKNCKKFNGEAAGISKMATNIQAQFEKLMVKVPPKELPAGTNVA
Assay: histone peptide array (Active Motif MODified), 1 uM GST-tagged bromodomain, anti-GST detection, normalized mean intensity
Numbered stars: 1 amine (or outer) side, 2 acyl side, 3 side chain; on linkers, the order of the positions; unused ones are H or OH. Square brackets hold non-standard residues; d marks the D form. Ends that are not written are not given here. Arg(Me2a) = CN(C)C(=N)NCCC[C@H](N)C(=O)O; Kac = CC(=O)NCCCC[C@H](N[*:1])C(=O)[*:2]; Lys(Me3) = C[N+](C)(C)CCCC[C@H](N)C(=O)O; pS = N[C@@H](COP(=O)(O)O)C(=O)O; me2a = not defined here
API doc: respond with a numeric literal and nothing else, no unit.

Enquiry: Name the reported binding score value associated with the binder SGRGKGGKGLGKGGAKRHR (S G Rme2s G Kac G G K G L G K G G A K R H R)
Return: 0.0225

Enquiry: Name the reported binding score value associated with the binder PRKQLATKAARK(Me2)[pS]APATGG
Return: 0.0029

Enquiry: Name the reported binding score value associated with the binder PRKQLATKAA[Arg(Me2a)]K(Me)SAPATGG
Return: 0.00399

Enquiry: Name the reported binding score value associated with the binder ARTKQTARKSTGGKAPRKQ (A Rme2a T Kme3 Q T A Rme2a Kac S T G G K A P R K Q)
Return: 0.0392

Enquiry: Name the reported binding score value associated with the binder SGRGKGGKGLGKGGAKRHR (S G Rme2a G Kac G G Kac G L G Kac G G A K R H R)
Return: 0.236

Enquiry: Name the reported binding score value associated with the binder A[Arg(Me2a)]T[Lys(Me3)]QTAR[Kac]STGGKAPRKQ
Return: 0.0344

Enquiry: Name the reported binding score value associated with the binder ARTK(me3)QTAR(me2a)K(me3)STGGKAPRKQ (reading uncertain)
Return: 0.00508
